Reported % Activity (FLIPR) values for a set of binders
Target: mouse NMUR2 (mouse, UniProt Q8BZ39 1-395)
Sequence (Q8BZ39 whole entry): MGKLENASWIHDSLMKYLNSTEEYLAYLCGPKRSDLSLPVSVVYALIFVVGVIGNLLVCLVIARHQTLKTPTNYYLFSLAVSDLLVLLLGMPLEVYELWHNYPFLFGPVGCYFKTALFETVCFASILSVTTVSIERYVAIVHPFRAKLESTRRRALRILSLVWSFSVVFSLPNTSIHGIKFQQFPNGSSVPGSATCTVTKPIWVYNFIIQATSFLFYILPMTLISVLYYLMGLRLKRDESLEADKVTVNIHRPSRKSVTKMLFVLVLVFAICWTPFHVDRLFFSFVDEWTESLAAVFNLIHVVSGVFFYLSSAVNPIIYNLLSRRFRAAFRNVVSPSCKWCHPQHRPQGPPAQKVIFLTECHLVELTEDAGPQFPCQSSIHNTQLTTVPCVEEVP
Assay: cell-based or functional assay
No end group written: not given here. *: point of attachment. Succinimide(1-Et,3-yl) = CCN1C(=O)CC(*)C1=O; Palmitoyl = CCCCCCCCCCCCCCCC(=O)*
Enter your answer as a number in %; do not include the unit.

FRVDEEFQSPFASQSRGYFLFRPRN-NH2 (not fully specified (N-terminus)) [NMU1]	95.7
Palmitoyl-C(Succinimide(1-Et,3-yl))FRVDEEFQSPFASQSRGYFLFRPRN-NH2 [NMU24]	82.4

Shifting focus to the binder that follows.
For Ac-C(Succinimide(1-Et,3-yl))C(Succinimide(1-Et,3-yl))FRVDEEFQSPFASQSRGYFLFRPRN-NH2 [NMU22] the binder record lists % Activity (FLIPR) as 100
